Reference for the values: paper PMC6366416

# Test system: NCI-H522
# assayNotes: NCI one-dose SRB growth inhibition
# Format: cell-based
# assayContext: Homo sapiens, NCI-H522, 48 h, Non-Small Cell Lung Cancer, read-out: GI% NCI-H522
resultType: inhibition at 10 µM (%)
Response body: numeric value in %, unit text excluded.

| smilesStructure | experimentalResult |
| --- | --- |
| COc1ccc(NC(=O)Nc2ccc(-c3ccc(Cl)cc3)nc2C)cc1 | 40 |
| CCOC(=O)c1ccc(NC(=O)Nc2ccc(-c3cccs3)nc2C)cc1 | 52 |
| Cc1nc(-c2ccc(F)cc2)ccc1NC(=O)Nc1ccc2c(c1)OCO2 | 45 |
| CCOC(=O)c1ccc(NC(=O)Nc2ccc(-c3ccc(F)cc3)nc2C)cc1 | 24 |
| Cc1nc(-c2cccs2)ccc1NC(=O)Nc1ccc(F)cc1 | 39 |

Cc1nc(-c2ccc(Cl)cc2)ccc1NC(=O)Nc1cccc(C(F)(F)F)c1 has a reported inhibition at 10 µM of 48

Cc1nc(-c2cccs2)ccc1NC(=O)Nc1ccc(Cl)cc1 has a reported inhibition at 10 µM of 28

Cc1nc(-c2ccc(Cl)cc2)ccc1NC(=O)Nc1ccc2c(c1)OCO2 has a reported inhibition at 10 µM of 38

====

Documented inhibition at 10 µM across a set of compounds
# Tested on: EKVX
# assayNotes: NCI one-dose SRB growth inhibition
# Type: cell-based
# assayContext: Homo sapiens, Non-Small Cell Lung Cancer, 48 h, read-out: GI% EKVX

Use the examples below as a reference point.
| smilesStructure | inhibition at 10 µM |
| --- | --- |
| Cc1nc(-c2ccc(F)cc2)ccc1NC(=O)Nc1ccc2c(c1)OCO2 | < 10% |
| Cc1nc(-c2ccc(Cl)cc2)ccc1NC(=O)Nc1ccc2c(c1)OCO2 | < 10% |
| Cc1nc(-c2ccc(Cl)cc2)ccc1NC(=O)Nc1cccc(C(F)(F)F)c1 | < 10% |
| Cc1nc(-c2cccs2)ccc1NC(=O)Nc1ccc(F)cc1 | < 10% |
| COc1ccc(NC(=O)Nc2ccc(-c3ccc(Cl)cc3)nc2C)cc1 | < 10% |

CCOC(=O)c1ccc(NC(=O)Nc2ccc(-c3ccc(F)cc3)nc2C)cc1 has a reported inhibition at 10 µM of < 10%

CCOC(=O)c1ccc(NC(=O)Nc2ccc(-c3cccs3)nc2C)cc1 has a reported inhibition at 10 µM of < 10%

Cc1nc(-c2ccc(F)cc2)ccc1NC(=O)Nc1cccc(C(F)(F)F)c1 has a reported inhibition at 10 µM of 17%

Cc1nc(-c2cccs2)ccc1NC(=O)Nc1ccc(Cl)cc1 has a reported inhibition at 10 µM of < 10%

====

# System: CCRF-CEM
# assayNotes: NCI one-dose SRB growth inhibition
# Type: cell-based
# assayContext: Homo sapiens, Leukemia, 48 h, read-out: GI% CCRF-CEM
Documented inhibition at 10 µM across a set of compounds
Response body: numeric value in %, unit text excluded.

| smilesStructure | experimentalResult |
| --- | --- |
| Cc1nc(-c2ccc(F)cc2)ccc1NC(=O)Nc1cccc(C(F)(F)F)c1 | 25 |
| Cc1nc(-c2ccc(Cl)cc2)ccc1NC(=O)Nc1cccc(C(F)(F)F)c1 | 22 |

CCOC(=O)c1ccc(NC(=O)Nc2ccc(-c3cccs3)nc2C)cc1 has a reported inhibition at 10 µM of 50
